- assayed target: Voltage-gated inwardly rectifying potassium channel KCNH2 (Homo sapiens, UniProt Q12809)
- Sequence (Q12809 whole entry): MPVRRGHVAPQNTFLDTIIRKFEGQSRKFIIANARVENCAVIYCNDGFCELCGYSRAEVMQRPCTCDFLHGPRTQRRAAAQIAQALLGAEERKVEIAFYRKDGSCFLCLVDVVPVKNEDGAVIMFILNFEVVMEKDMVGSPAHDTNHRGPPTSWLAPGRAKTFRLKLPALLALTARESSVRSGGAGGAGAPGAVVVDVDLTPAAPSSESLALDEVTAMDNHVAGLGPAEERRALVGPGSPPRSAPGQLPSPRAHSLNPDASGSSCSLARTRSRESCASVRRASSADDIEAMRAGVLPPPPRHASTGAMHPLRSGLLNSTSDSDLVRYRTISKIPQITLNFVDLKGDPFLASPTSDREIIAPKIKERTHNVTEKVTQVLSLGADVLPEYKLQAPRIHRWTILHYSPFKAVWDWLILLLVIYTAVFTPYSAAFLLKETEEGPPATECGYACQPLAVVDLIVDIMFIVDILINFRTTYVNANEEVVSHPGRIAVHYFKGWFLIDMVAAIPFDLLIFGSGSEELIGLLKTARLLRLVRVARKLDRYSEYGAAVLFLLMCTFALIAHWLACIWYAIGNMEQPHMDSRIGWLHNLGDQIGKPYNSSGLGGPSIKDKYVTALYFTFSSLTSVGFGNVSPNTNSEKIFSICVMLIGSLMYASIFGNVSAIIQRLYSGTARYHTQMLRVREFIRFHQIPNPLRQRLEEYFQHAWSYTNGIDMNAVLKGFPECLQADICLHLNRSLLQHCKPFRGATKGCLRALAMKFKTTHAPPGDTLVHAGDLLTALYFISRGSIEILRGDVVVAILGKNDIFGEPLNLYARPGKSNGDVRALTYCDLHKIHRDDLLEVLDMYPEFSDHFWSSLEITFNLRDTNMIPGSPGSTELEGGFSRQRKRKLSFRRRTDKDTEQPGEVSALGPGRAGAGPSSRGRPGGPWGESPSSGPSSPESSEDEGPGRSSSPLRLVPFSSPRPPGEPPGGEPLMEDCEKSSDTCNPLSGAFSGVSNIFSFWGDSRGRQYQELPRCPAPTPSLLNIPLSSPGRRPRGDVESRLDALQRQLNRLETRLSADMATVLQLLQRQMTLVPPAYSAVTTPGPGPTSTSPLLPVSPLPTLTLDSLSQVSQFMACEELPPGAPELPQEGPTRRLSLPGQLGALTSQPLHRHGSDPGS
property: IC50

// query # lookup: IC50 of `Cc1ncc(C(=O)NCCN2CCCC2(C)C)cc1NC(=O)c1cnn2cc(-c3cnn(C)c3)ccc12`
// result > 30 µM

###

- assay name: Solubility of the compound using 10%PEG200/[…]D5W by high-throughput assay
- Type: physicochemical
Record form. Attribute: solubility. Fill in for each entry.

// query Report solubility for `CN1CCN(c2ccccc2CNC(=O)c2ccc(F)c(NC(=O)c3cnc4cc(-c5ccnn5C)ccn34)c2)CC1` please.
// result 770 µg/mL

// query If you can, please state the reported solubility value of `Cn1cc(-c2ccn3c(C(=O)Nc4cc(C(=O)NCCN5CCCC5(C)C)ccc4F)cnc3c2)cn1` .
// result > 1000 µg/mL

// query Given the compound `C[C@@H]1CCC[C@H](C)N1CCNC(=O)c1ccc(F)c(NC(=O)c2cnc3cc(-c4ccnn4C)ccn23)c1` , what is its reported solubility?
// result 590 µg/mL

// query Dear colleague, I am looking for the recorded solubility of the following compound: `Cc1ncc(C(=O)NCc2ccccc2N2CCN(C)CC2)cc1NC(=O)c1cnn2cc(-c3ccnn3C)ccc12`
// result > 1000 µg/mL

// query Please report the recorded solubility for `Cc1ncc(C(=O)NCCN2CCCC2(C)C)cc1NC(=O)c1cnn2cc(-c3cnn(C)c3)ccc12` .
// result > 1000 µg/mL

// query Param item = `Cn1nccc1-c1ccn2c(C(=O)Nc3cc(C(=O)NCc4ccc(F)c(F)c4)ccc3F)cnc2c1` ; retrieve measured solubility.
// result < 10 µg/mL

// query # get_value(readout='solubility', item= `CN1CCN(c2ccccc2CNC(=O)c2ccc(F)c(NC(=O)c3cnn4cc(-c5ccnn5C)ccc34)c2)CC1` )
// result > 1000 µg/mL

###

Assignment: determine reported permeability for the given compounds.
- assay name: Transcellular permeability of the compound by PAMPA
- Assay type: ADME
Reply with just the number (in %).

// query I have this compound here, `Cn1nccc1-c1ccn2c(C(=O)Nc3cc(C(=O)NCCN4CCCC4(C)C)ccc3F)cnc2c1` , and I need its recorded permeability.
// result 0.6

// query // permeability lookup, key: `CN1CCN(c2ccccc2CNC(=O)c2ccc(F)c(NC(=O)c3cnc4cc(-c5ccnn5C)ccn34)c2)CC1`
// result 4.8

// query Look up permeability for this compound: Cn1nccc1-c1ccn2c(C(=O)Nc3cc(C(=O)NCC4CCC(C)(C)O4)ccc3F)cnc2c1 (stereo not given)
// result 81

// query # lookup: permeability of `Cc1ncc(C(=O)NCc2ccccc2N2CCN(C)CC2)cc1NC(=O)c1cnn2cc(-c3ccnn3C)ccc12`
// result 17

// query Request the reported permeability associated with `Cn1cc(-c2ccn3c(C(=O)Nc4cc(C(=O)NCCN5CCCC5(C)C)ccc4F)cnc3c2)cn1`
// result 0.7

// query # get_value(readout='permeability', item= `C[C@@H]1CCC[C@H](C)N1CCNC(=O)c1ccc(F)c(NC(=O)c2cnc3cc(-c4ccnn4C)ccn23)c1` )
// result 5.4

// query I am curious: what permeability value has been reported for `CN1CCN(c2ccccc2CNC(=O)c2ccc(F)c(NC(=O)c3cnc4ccccn34)c2)CC1` ?
// result 83.1

// query Please report the recorded permeability for `CCN(CCNC(=O)c1ccc(F)c(NC(=O)c2cnc3cc(-c4ccnn4C)ccn23)c1)C(C)(C)C` .
// result 23

// query Give its permeability value. Item: `CN1CCN(c2ccccc2CNC(=O)c2ccc(F)c(NC(=O)c3cnc4cc(-c5cccnc5)ccn34)c2)CC1`
// result 23

// query Recorded permeability for `CN1CCN(c2ccccc2CNC(=O)c2ccc(F)c(NC(=O)c3cnc4cc(-c5cc[nH]n5)ccn34)c2)CC1` , please?
// result 0

// query Which permeability is reported for this compound? `Cn1nccc1-c1ccn2c(C(=O)Nc3cc(C(=O)NCc4ccc(F)c(F)c4)ccc3F)cnc2c1`
// result 11

// query # input compound: `Cc1ncc(C(=O)NCCN2CCCC2(C)C)cc1NC(=O)c1cnn2cc(-c3cnn(C)c3)ccc12` ; wanted: its permeability
// result 4.7

// query Data request, read-out permeability, for `CN(CCNC(=O)c1ccc(F)c(NC(=O)c2cnc3cc(-c4ccnn4C)ccn23)c1)C(C)(C)C`
// result 0

// query May I ask what permeability has been recorded for `CN1CCN(c2ccccc2CNC(=O)c2ccc(F)c(NC(=O)c3cnn4cc(-c5ccnn5C)ccc34)c2)CC1` ?
// result 70

// query Fill blank: measured permeability of the compound `CN1CCN(c2ccccc2CNC(=O)c2ccc(F)c(NC(=O)c3cnc4cc(-c5cnn(C)c5)ccn34)c2)CC1` is ____.
// result 26.3
